Provide the recorded combination Emax for the entries that follow.
test system: NCI-H1651 (Lung Adenocarcinoma); test: combination Emax (second highest fraction inhibited in the dose matrix, 72 h); higher = more inhibition; extreme values may be limits of the assay
Give only the figure.

What does the data say about its combination Emax? Entry: COc1cccc2c1C(=O)c1c(O)c3c(c(O)c1C2=O)C[C@@](O)(C(=O)CO)C[C@@H]3O[C@H]1C[C@H](N)[C@H](O)[C@H](C)O1 [Doxorubicin] + Cc1cc2ncnn2cc1Nc1ncc2c(n1)n(C1CCOCC1)c(=O)n2C [AZD7648] (first compound max 1 µM, 7x7, partner max 10 µM)
0.712

Returns the measured combination Emax for the input compound. Input: CN(CCO)CC[C@H](CSc1ccccc1)Nc1ccc(S(=O)(=O)NC(=O)c2ccc(N3CCC([C@@H](O)c4ccccc4-c4ccc(Cl)cc4)CC3)cc2)cc1S(=O)(=O)C(F)(F)F [AZD4320] + C=CCn1c(=O)c2cnc(Nc3ccc(N4CCN(C)CC4)cc3)nc2n1-c1cccc(C(C)(C)O)n1 [AZD1775] (first compound max 1 µM, partner max 1 µM)
0.746

Consider the compound shown here: O=C(c1cc(Cc2n[nH]c(=O)c3ccccc23)ccc1F)N1CCN(C(=O)C2CC2)CC1 [Olaparib] + Cc1c2c(nn1C)CSCc1cc(n(C)n1)CSc1cc(c3ccccc3c1)OCCCc1c(C(=O)O)n(C)c3c-2c(Cl)ccc13 [AZD5991] (first compound max 10 µM, 7x7, partner max 1 µM) What is its recorded combination Emax?
0.293

Which value of combination Emax has been reported for CC1(C)CCC(CN2CCN(c3ccc(C(=O)NS(=O)(=O)c4ccc(NCC5CCOCC5)c([N+](=O)[O-])c4)c(Oc4cnc5[nH]ccc5c4)c3)CC2)=C(c2ccc(Cl)cc2)C1 [Venetoclax] + C1CN(CCC1(C(=O)N[C@@H](CCO)C2=CC=C(C=C2)Cl)N)C3=NC=NC4=C3C=CN4 [Capivasertib] (first compound max 1 µM, 7x7, partner max 3 µM) in the records?
0.159

Any idea what combination Emax was measured for Cn1cnc2c(F)c(Nc3ccc(Br)cc3Cl)c(C(=O)NOCCO)cc21 [Selumetinib] + CCN(CCO)CCCOc1ccc2c(Nc3cc(CC(=O)Nc4cccc(F)c4)[nH]n3)ncnc2c1 [AZD2811] (first compound max 10 µM, 7x7, partner max 1 µM) ?
0.209

Fill in: combination Emax of NC1(C(=O)N[C@@H](CCO)c2ccc(Cl)cc2)CCN(c2ncnc3[nH]ccc23)CC1 [Capivasertib] + CC(=O)c1c(C)c2cnc(Nc3ccc(N4CCNCC4)cn3)nc2n(C2CCCC2)c1=O [Palbociclib] (first compound max 10 µM, 7x7, partner max 10 µM) is ___
0.0542

State the recorded combination Emax for this entry: C=CCn1c(=O)c2cnc(Nc3ccc(N4CCN(C)CC4)cc3)nc2n1-c1cccc(C(C)(C)O)n1 [AZD1775] + C1CN(CCC1(C(=O)N[C@@H](CCO)C2=CC=C(C=C2)Cl)N)C3=NC=NC4=C3C=CN4 [Capivasertib] (first compound max 3 µM, partner max 3 µM)
0.794

====

Please go through the items and note down their Bliss excess.
test system: UACC-812 (Breast Carcinoma); assay: Bliss excess, mean over the matrix (fraction); higher = more synergy
// no unit string in output, number only

Any idea what Bliss excess was measured for N#Cc1cnc(Nc2cc(NC[C@H]3CNCCO3)c(C(F)(F)F)cn2)cn1 [SRA737] + CCc1c2c(nc3ccc(O)cc13)-c1cc3c(c(=O)n1C2)COC(=O)[C@]3(O)CC [SN-38] (first compound max 10 µM, 7x7, partner max 0.3 µM) ?
-0.0309

// returns reported Bliss excess for input CN(CCO)CC[C@H](CSc1ccccc1)Nc1ccc(S(=O)(=O)NC(=O)c2ccc(N3CCC([C@@H](O)c4ccccc4-c4ccc(Cl)cc4)CC3)cc2)cc1S(=O)(=O)C(F)(F)F [AZD4320] + CN(C)CCCOc1ccc(-c2ccc3ncc4c(c3c2)n(C2CCOCC2)c(=O)n4C)cn1 [AZD0156] (first compound max 1 µM, 7x7, partner max 1 µM)
-0.0283

====

tested on: NCI-H716 (Colorectal Carcinoma); experiment: Bliss excess, mean over the matrix (fraction); higher = more synergy
Please provide measured Bliss excess for the entries that follow.
// return a plain number; no unit text

Reported Bliss excess for CN(CCO)CC[C@H](CSc1ccccc1)Nc1ccc(S(=O)(=O)NC(=O)c2ccc(N3CCC([C@@H](O)c4ccccc4-c4ccc(Cl)cc4)CC3)cc2)cc1S(=O)(=O)C(F)(F)F [AZD4320] + Cc1cc2ncnn2cc1Nc1ncc2c(n1)n(C1CCOCC1)c(=O)n2C [AZD7648] (first compound max 1 µM, 7x7, partner max 10 µM) : what is it?
-0.0253

Give the measured Bliss excess of CC1(C)CCC(CN2CCN(c3ccc(C(=O)NS(=O)(=O)c4ccc(NCC5CCOCC5)c([N+](=O)[O-])c4)c(Oc4cnc5[nH]ccc5c4)c3)CC2)=C(c2ccc(Cl)cc2)C1 [Venetoclax] + C=CCn1c(=O)c2cnc(Nc3ccc(N4CCN(C)CC4)cc3)nc2n1-c1cccc(C(C)(C)O)n1 [AZD1775] (first compound max 1 µM, partner max 1 µM) .
0.0214

Need Bliss excess of CCc1c2c(nc3ccc(O)cc13)-c1cc3c(c(=O)n1C2)COC(=O)[C@]3(O)CC [SN-38] + CN(C)CCCOc1ccc(-c2ccc3ncc4c(c3c2)n(C2CCOCC2)c(=O)n4C)cn1 [AZD0156] (first compound max 0.3 µM, 7x7, partner max 1 µM) , thanks.
0.0129

Name the recorded Bliss excess for CN(C)CCCOc1ccc(-c2ccc3ncc4c(c3c2)n(C2CCOCC2)c(=O)n4C)cn1 [AZD0156] + CCN(CCO)CCCOc1ccc2c(Nc3cc(CC(=O)Nc4cccc(F)c4)[nH]n3)ncnc2c1 [AZD2811] (first compound max 1 µM, 7x7, partner max 1 µM) .
-0.0063

Query: Bliss excess; subject: CN(C)CCCOc1ccc(-c2ccc3ncc4c(c3c2)n(C2CCOCC2)c(=O)n4C)cn1 [AZD0156] + C[C@@H]1COCCN1C2=NC(=NC(=C2)C3(CC3)[S@](=N)(=O)C)C4=C5C=CNC5=NC=C4 [AZD6738] (first compound max 1 µM, 7x7, partner max 10 µM)
0.0459

Look up Bliss excess for this molecule: CN(C)CCCOc1ccc(-c2ccc3ncc4c(c3c2)n(C2CCOCC2)c(=O)n4C)cn1 [AZD0156] + C=CCn1c(=O)c2cnc(Nc3ccc(N4CCN(C)CC4)cc3)nc2n1-c1cccc(C(C)(C)O)n1 [AZD1775] (first compound max 1 µM, partner max 1 µM)
0.022

Please report the recorded Bliss excess for COc1cccc2c1C(=O)c1c(O)c3c(c(O)c1C2=O)C[C@@](O)(C(=O)CO)C[C@@H]3O[C@H]1C[C@H](N)[C@H](O)[C@H](C)O1 [Doxorubicin] + Cc1cc2ncnn2cc1Nc1ncc2c(n1)n(C1CCOCC1)c(=O)n2C [AZD7648] (first compound max 1 µM, 7x7, partner max 10 µM) .
0.0113

What does the record list as Bliss excess for NC1(C(=O)N[C@@H](CCO)c2ccc(Cl)cc2)CCN(c2ncnc3[nH]ccc23)CC1 [Capivasertib] + COc1nnc2ccc(N3CCC(c4ccc(OCCN5CCN(C)C(=O)[C@H]5C)cc4)CC3)nn12 [AZD5153] (first compound max 10 µM, 7x7, partner max 1 µM) ?
-0.0181

====

Provide the reported Bliss excess of each item.
system: LS-411N (Colorectal Carcinoma); test: Bliss excess, mean over the matrix (fraction); higher = more synergy

Request body: readout Bliss excess, system LS-411N (Colorectal Carcinoma), query CN(CCO)CC[C@H](CSc1ccccc1)Nc1ccc(S(=O)(=O)NC(=O)c2ccc(N3CCC([C@@H](O)c4ccccc4-c4ccc(Cl)cc4)CC3)cc2)cc1S(=O)(=O)C(F)(F)F [AZD4320] + CCN(CCO)CCCOc1ccc2c(Nc3cc(CC(=O)Nc4cccc(F)c4)[nH]n3)ncnc2c1 [AZD2811] (first compound max 1 µM, 7x7, partner max 1 µM) . Return the value.
0.0119

Query Bliss excess on LS-411N (Colorectal Carcinoma) for CCN(CCO)CCCOc1ccc2c(Nc3cc(CC(=O)Nc4cccc(F)c4)[nH]n3)ncnc2c1 [AZD2811] + O=C(c1cc(Cc2n[nH]c(=O)c3ccccc23)ccc1F)N1CCN(C(=O)C2CC2)CC1 [Olaparib] (first compound max 1 µM, 7x7, partner max 10 µM)
-0.0082

Form field: Bliss excess recorded for Cn1cnc2c(F)c(Nc3ccc(Br)cc3Cl)c(C(=O)NOCCO)cc21 [Selumetinib] + C[C@@H]1COCCN1C2=NC(=NC(=C2)C3(CC3)[S@](=N)(=O)C)C4=C5C=CNC5=NC=C4 [AZD6738] (first compound max 10 µM, 7x7, partner max 10 µM) with LS-411N (Colorectal Carcinoma) (enter value)
-0.0195

====

test system: CESS (Acute Myeloid Leukemia); assay: combination Emax (second highest fraction inhibited in the dose matrix, 72 h); higher = more inhibition; extreme values may be limits of the assay
Reported Endpoint: combination Emax
Answer as a number with no unit attached.

Please report the recorded combination Emax for COc1cccc(OCCCN)c1-c1cc(Nc2cnc(C#N)cn2)n[nH]1 [Prexasertib] + C[C@@H]1COCCN1C2=NC(=NC(=C2)C3(CC3)[S@](=N)(=O)C)C4=C5C=CNC5=NC=C4 [AZD6738] (first compound max 1 µM, 7x7, partner max 10 µM) .
0.978

Param item = C=CCn1c(=O)c2cnc(Nc3ccc(N4CCN(C)CC4)cc3)nc2n1-c1cccc(C(C)(C)O)n1 [AZD1775] + C1CN(CCC1(C(=O)N[C@@H](CCO)C2=CC=C(C=C2)Cl)N)C3=NC=NC4=C3C=CN4 [Capivasertib] (first compound max 3 µM, partner max 3 µM) ; retrieve measured combination Emax.
0.874
